Values from patent US4720495A

- Tested on: Bacillus subtilis ATCC 6633
READOUT_LABEL: MIC (µg/mL)
Please state the figure in µg/mL; there is no need to write the unit.

See these solved cases before continuing.
MOLECULE	UOM	MIC
CC1CN(c2c(Cl)cc3c(=O)c(C(=O)O)cn4c3c2C=CC4C)CCN1 (centres unmarked) [Compound 31]	µg/mL	0.2
CC1C=Cc2c(N3CCN(C)CC3)c(Cl)cc3c(=O)c(C(=O)O)cn1c23 (centres unmarked) [Compound 24]	µg/mL	0.2
CC1CN(c2c(F)cc3c(=O)c(C(=O)O)cn4c3c2C=CC4C)CCN1 (centres unmarked) [Compound 29]	µg/mL	0.2
CCC1CC(=O)c2c(N3CCN(C)CC3)c(F)cc3c(=O)c(C(=O)O)cn1c23 (centres unmarked) [Compound 6]	µg/mL	0.39
CC1COc2c(N3CCN(C)CC3)c(F)cc3c(=O)c(C(=O)O)cn1c23 (centres unmarked) [Ofloxacin, reference compound]	µg/mL	0.1
CC1CN(c2c(F)cc3c(=O)c(C(=O)O)cn4c3c2C(=O)CC4C)CCN1 (centres unmarked) [Compound 16]	µg/mL	0.2

Reported MIC, molecule CC1C=Cc2c(N3CCN(C)CC3)c(F)cc3c(=O)c(C(=O)O)cn1c23 (centres unmarked) [Compound 19] : ____
0.1

CCCN1CCN(c2c(F)cc3c(=O)c(C(=O)O)cn4c3c2C(=O)CC4C)CC1 (centres unmarked) [Compound 8] ?
0.39

====

- ASSAY: enteral absorbability, serum concentration after oral administration to mice
- Assay type: in vivo
- TEST_SETTINGS: mouse, 2 hr., 50 mg/kg orally, fasted male ICR mice
Listing: concentration at 2 h of selected compounds
Provide the measurement as a number trailed by its unit.

COMPOUND	TEST_RESULT
CC1CC(=O)c2c(N3CCN(C)CC3)c(F)cc3c(=O)c(C(=O)O)cn1c23.Cl.O (centres unmarked)	11.8 µg/mL

Kindly consider the entry below.
I would be grateful if you could share the reported concentration at 2 h for CC1CN(c2c(F)cc3c(=O)c(C(=O)O)cn4c3c2C(=O)CC4C)CCN1C.Cl.O (centres unmarked) .
13.5 µg/mL

====

For reference, MIC measured on Streptococcus faecalis AHU 1085:

COMPOUND	TEST_RESULT
CC1CCc2c(N3CCN(C)CC3)c(F)cc3c(=O)c(C(=O)O)cn1c23 (centres unmarked) [OPC-7241, reference compound]	0.78 µg/mL
CC1CC(=O)c2c(N3CCNCC3)c(F)cc3c(=O)c(C(=O)O)cn1c23 (centres unmarked)	1.56 µg/mL
CC1CC(=O)c2c(N3CCN(C)CC3)c(Cl)cc3c(=O)c(C(=O)O)cn1c23 (centres unmarked)	1.56 µg/mL
CC1CN(c2c(F)cc3c(=O)c(C(=O)O)cn4c3c2C(=O)CC4C)CCN1C.Cl.O (centres unmarked)	0.78 µg/mL
CC1COc2c(N3CCN(C)CC3)c(F)cc3c(=O)c(C(=O)O)cn1c23 (centres unmarked) [Ofloxacin, reference compound]	0.78 µg/mL

Give Streptococcus faecalis AHU 1085 MIC for CC1CN(c2c(F)cc3c(=O)c(C(=O)O)cn4c3c2C=CC4C)CCN1 (centres unmarked)
0.78 µg/mL

Same lookup for CCCN1CCN(c2c(F)cc3c(=O)c(C(=O)O)cn4c3c2C(=O)CC4C)CC1 (centres unmarked) , please.
3.13 µg/mL

Also need CC1C=Cc2c(N3CCN(C)CC3)c(Cl)cc3c(=O)c(C(=O)O)cn1c23 (centres unmarked) , thanks.
0.78 µg/mL

====

- Tested on: Salmonella enteritidis G14
The entries below are paired with their reported MIC.
// units = µg/mL; emit number, no label

COMPOUND	READOUT_LABEL	TEST_RESULT
CC1CCc2c(N3CCN(C)CC3)c(F)cc3c(=O)c(C(=O)O)cn1c23 (stereo not drawn) [OPC-7241, reference compound]	MIC	0.78
CC1CC(=O)c2c(N3CCN(C)CC3)c(F)cc3c(=O)c(C(=O)O)cn1c23.Cl.O (stereo not drawn)	MIC	0.78
CC1CN(c2c(F)cc3c(=O)c(C(=O)O)cn4c3c2C=CC4C)CCN1C (stereo not drawn)	MIC	1.56
CC1C=Cc2c(N3CCN(C)CC3)c(F)cc3c(=O)c(C(=O)O)cn1c23 (stereo not drawn)	MIC	0.78

Any idea what MIC was measured for CC1COc2c(N3CCN(C)CC3)c(F)cc3c(=O)c(C(=O)O)cn1c23 (stereo not drawn) [Ofloxacin, reference compound] ?
0.39

Now try CC1CN(c2c(F)cc3c(=O)c(C(=O)O)cn4c3c2C=CC4C)CC(C)N1C (stereo not drawn) .
0.78

====

- ASSAY: enteral absorbability, serum concentration after oral administration to mice
- Assay type: in vivo
- TEST_SETTINGS: mouse, 2 hr., 50 mg/kg orally, fasted male ICR mice
- Procedure: Using male ICR mice fasted overnight (weighing 20±1 g), the enteral absorbability of some typical examples of the present compounds [I] was tested. This test was carried out by administering 50 mg/kg of each test compound orally to mice and determining its serum concentration 30 minutes, 1 hour, 2 hours and 4 hours after administration. […] Concentrations of the test compounds in serum samples were determined by the paper disc method using Escherichia coli CI-304 as the test microorganism. […]
READOUT_LABEL: concentration at 2 h (ng/mL)
Give a bare numeral; the unit ng/mL is implied.

COMPOUND	concentration at 2 h [ng/mL]
CC1CN(c2c(F)cc3c(=O)c(C(=O)O)cn4c3c2C=CC4C)CCN1C (stereo not shown) [Compound 25]	9300

Quick one: concentration at 2 h for CC1COc2c(N3CCN(C)CC3)c(F)cc3c(=O)c(C(=O)O)cn1c23 (stereo not shown) [Ofloxacin, reference compound] ?
2600

Param item: CC1CN(c2c(F)cc3c(=O)c(C(=O)O)cn4c3c2C(=O)CC4C)CCN1 (stereo not shown) [Compound 16]
8100

Follow-up item: CC1CC(=O)c2c(N3CCNC(C)(C)C3)c(F)cc3c(=O)c(C(=O)O)cn1c23 (stereo not shown) [Compound 15]
6700

====

Parameter: MIC. Scope: all listed entries.
- Test system: Bacillus subtilis ATCC 6633
The answer is to be given in µg/mL; state only the numeric part.

What value of measured MIC is listed for CC1CN(c2c(F)cc3c(=O)c(C(=O)O)cn4c3c2C(=O)CC4C)CC(C)N1 (centres unmarked) ?
0.1

Request: CC1CC(=O)c2c(N3CCNC(C)(C)C3)c(F)cc3c(=O)c(C(=O)O)cn1c23 (centres unmarked)
0.39

Now consider CCN1CCN(c2c(Cl)cc3c(=O)c(C(=O)O)cn4c3c2C(=O)CC4C)CC1 (centres unmarked) .
0.2

Check CC1CN(c2c(F)cc3c(=O)c(C(=O)O)cn4c3c2C(=O)CC4C)CC(C)N1C.Cl.O (centres unmarked) too.
0.2

# iterate: CC1CC(=O)c2cc(F)cc3c(=O)c(C(=O)O)cn1c23 (stereo not drawn) [Compound α, reference compound]
12.5

Next entry: CC1CC(=O)c2c(N3CCNCC3)c(Cl)cc3c(=O)c(C(=O)O)cn1c23 (centres unmarked)
0.39

// repeat for CC1CN(c2c(F)cc3c(=O)c(C(=O)O)cn4c3c2C(=O)CC4C)CCN1C.Cl.O (centres unmarked) and report
0.1

Lookup CC1CC(=O)c2c(N3CCNCC3)c(F)cc3c(=O)c(C(=O)O)cn1c23 (centres unmarked)
0.39

====

- ASSAY: enteral absorbability, serum concentration after oral administration to mice
- Type: in vivo
- TEST_SETTINGS: mouse, 1 hr., 50 mg/kg orally, fasted male ICR mice
Listed compounds paired with reported concentration at 1 h

Completed entries (count: 5):
COMPOUND	concentration at 1 h
CC1CC(=O)c2c(N3CCN(C)CC3)c(F)cc3c(=O)c(C(=O)O)cn1c23 (stereo not drawn)	22400 ng/mL
CC1COc2c(N3CCN(C)CC3)c(F)cc3c(=O)c(C(=O)O)cn1c23 (stereo not drawn) [Ofloxacin, reference compound]	6200 ng/mL
CC1CN(c2c(F)cc3c(=O)c(C(=O)O)cn4c3c2C=CC4C)CCN1 (stereo not drawn)	14400 ng/mL
CC1CN(c2c(F)cc3c(=O)c(C(=O)O)cn4c3c2C(=O)CC4C)CC(C)N1 (stereo not drawn)	15800 ng/mL
CC1CN(c2c(Cl)cc3c(=O)c(C(=O)O)cn4c3c2C=CC4C)CCN1 (stereo not drawn)	12700 ng/mL

I'd like to know its concentration at 1 h. The compound in question is CCN1CCN(c2c(Cl)cc3c(=O)c(C(=O)O)cn4c3c2C(=O)CC4C)CC1 (stereo not drawn)
15900 ng/mL

What would you report for CC1CN(c2c(F)cc3c(=O)c(C(=O)O)cn4c3c2C=CC4C)CCN1C (stereo not drawn) ?
14900 ng/mL

Continue with CC1CCc2c(N3CCN(C)CC3)c(F)cc3c(=O)c(C(=O)O)cn1c23 (stereo not drawn) [OPC-7241, reference compound]
7800 ng/mL

Consider next the compound CC1CC(=O)c2c(N3CCNC(C)(C)C3)c(F)cc3c(=O)c(C(=O)O)cn1c23 (stereo not drawn) in the same way.
11700 ng/mL

Queued: CC1CN(c2c(F)cc3c(=O)c(C(=O)O)cn4c3c2C(=O)CC4C)CCN1 (stereo not drawn)
13600 ng/mL

Entry CC1CN(c2c(F)cc3c(=O)c(C(=O)O)cn4c3c2C(=O)CC4C)CCN1C.Cl.O (stereo not drawn) please
24100 ng/mL

Ok, now CC1CC(=O)c2c(N3CCN(C)CC3)c(F)cc3c(=O)c(C(=O)O)cn1c23.Cl.O (stereo not drawn)
22000 ng/mL
